Where do the numbers come from? From patent US20210395718A1.

Catalogue of T70/T50 values
Assay: Ketose 3-epimerase activity ratio (T70/T50) at reaction temperature of 70° C. to 50° C.
Format: biochemical
Details: crude recombinant enzyme; ratio of activity at 70° C. to activity at 50° C., 10 min reaction

These solved cases illustrate the format of a correct answer.
>  <molecule>
Ketose 3-epimerase mutant 10: amino acid-substituted mutant of SEQ ID NO: 1 (protein, Arthrobacter histidinolovorans) MKIGCHGLVWTGRFDAEGIRYSVQKTKEAGFDLIEFPLMDPFSFDVATAKSALAEHGLSVSASLGLSEATDVSSEDPAIVKAGEELLNRALDVLAELGATDFCGVIYSAMKKYMEPATEQGLSNSKAAVGRVVDRAAGLGINVSLEVVNRYETNVLNTGRQALSYLSDVKRPNLGVHLDTYHMNIEESDMFSPVLDTAEALKYVHIGESHRGYLGTGNVDFDNFFKALGRIGYDGPVVFESFSSAVVAPDLSRMLGIWRNLWADNEELGAHANAFIRDKLTAIKTIELH

>  <recorded.value>
1.98

$$$$
>  <molecule>
Ketose 3-epimerase mutant 30: amino acid-substituted mutant of SEQ ID NO: 1 (protein, Arthrobacter histidinolovorans) MKIGCHGLVWTGRFDAEGIRYSVQKTKEAGFDLIEFPLMDPFSFDVATAKSALAEHGLTASASLGLSEATDVSSEDPAIVKAGEELLNRALDVLAELGATDFCGVIYSAMKKYMEPATEQGLSNSKAAVGRVVDRAAGLGINVALEVVNRYETNVLNTGRQALSYLSDVKRPNLGVHLDTYHMNIEESDMFSPVLDTAEALKYVHIGESHRGYLGTGSVDFDNFFKALGRIGYDGPVVFESFSSAVVAPDLSRMLGIWRNLWADNEELGAHANAFIRDKLTAIKTIELH

>  <recorded.value>
1.57

$$$$
>  <molecule>
Ketose 3-epimerase mutant 3: amino acid-substituted mutant of SEQ ID NO: 1 (protein, Arthrobacter histidinolovorans) MKIGCHGLVWTGRFDAEGIRYSVQKTKEAGFDLIEFPLMDPFSFDVATAKSALAEHGLTASASLGLSEATDVSSEDPAIVKAGEELLNRALDVLAELGATEFCGVIYSAMKKYMEPATEQGLSNSKAAIGRVVDRAAGLGINVSLEVVNRYETNVLNTGRQALSYLSDVKRPNLGVHLDTYHMNIEESDMFSPVLDTAEVLKYVHIGESHRGYLGTGSVDFDNFFKALGRIGYDGPVVFESFSSAVVAPDLSRMLGIWRNLWADNEELGAHANAFIRDKLTAIKTIELH

>  <recorded.value>
2.11

$$$$
>  <molecule>
Ketose 3-epimerase mutant 21: amino acid-substituted mutant of SEQ ID NO: 1 (protein, Arthrobacter histidinolovorans) MKIGCHGLVWTGRFDAEGIRYSVQKTKEAGFDLIEFPLMDPFSFDVATAKSALAEHGLSVSASLGLSEATDVSSEDPAIVKAGEELLNRALDVLAELGATEFCGVIYSAMKKYMEPATEQGLSNSKAAVGRVVDRAAGLGINVSLEVVNRYETNVLNTGRQALSYLSDVKRPNLGVHLDTYHMNIEESDMFSPVLDTAEALKYVHIGESHRGYLGTGSVDFDNFFKALGRIGYDGPVVFESFSSAVVAPDLSRMLGIWRNLWADNEELGAHANAFIRDKLTAIKTIELH

>  <recorded.value>
1.70

$$$$
>  <molecule>
Ketose 3-epimerase mutant 2: amino acid-substituted mutant of SEQ ID NO: 1 (protein, Arthrobacter histidinolovorans) MKIGCHGLVWTGRFDAEGIRYSVQKTKEAGFDLIEFPLMDPFSFDVATAKSALAEHGLTASASLGLSEATDVSSEDPAIVKAGEELLNRALDVLAELGATDFCGVIYSAMKKYMEPATEQGLSNSKAAVGRVVDRAAGLGINVSLEVVNRYETNVLNTGRQALSYLSDVKRPNLGVHLDTYHMNIEESDMFSPVLDTAEVLKYVHIGESHRGYLGTGNVDFDNFFKALGRIGYDGPVVFESFSSAVVAPDLSRMLGIWRNLWADNEELGAHANAFIRDKLTAIKTIELH

>  <recorded.value>
2.31

$$$$

In plain terms, Ketose 3-epimerase mutant 13: amino acid-substituted mutant of SEQ ID NO: 1 (protein, Arthrobacter histidinolovorans) MKIGCHGLVWTGRFDAEGIRYSVQKTKEAGFDLIEFPLMDPFSFDVATAKSALAEHGLTASASLGLSEATDVSSEDPAIVKAGEELLNRALDVLAELGATDFCGVIYSAMKKYMEPATEQGLSNSKAAIGRVVDRAAGLGINVSLEVVNRYETNVLNTGRQALSYLSDVKRPNLGVHLDTYHMNIEESDMFSPVLDTAEVLKYVHIGESHRGYLGTGSVDFDNFFKALGRIGYDGPVVFESFSSAVVAPDLSRMLGIWRNLWADNEELGAHANAFIRDKLTAIKTIELH has a documented T70/T50 of 1.94

Notebook: Ketose 3-epimerase mutant 23: amino acid-substituted mutant of SEQ ID NO: 1 (protein, Arthrobacter histidinolovorans) MKIGCHGLVWTGRFDAEGIRYSVQKTKEAGFDLIEFPLMDPFSFDVATAKSALAEHGLTASASLGLSEATDVSSEDPAIVKAGEELLNRALDVLAELGATDFCGVIYSAMKKYMEPATEQGLSNSKAAVGRVVDRAAGLGINVSLEVVNRYETNVLNTGRQALSYLSDVKRGNLGVHLDTYHMNIEESDMFSPVLDTAEALKYVHIGESHRGYLGTGSVDFDNFFKALGRIGYDGPVVFESFSSAVVAPDLSRMLGIWRNLWADNEELGAHANAFIRDKLTAIKTIELH , T70/T50 read as 1.69
